# study_system: UniProt P37231
# Sequence (P37231 238-505 limits assumed): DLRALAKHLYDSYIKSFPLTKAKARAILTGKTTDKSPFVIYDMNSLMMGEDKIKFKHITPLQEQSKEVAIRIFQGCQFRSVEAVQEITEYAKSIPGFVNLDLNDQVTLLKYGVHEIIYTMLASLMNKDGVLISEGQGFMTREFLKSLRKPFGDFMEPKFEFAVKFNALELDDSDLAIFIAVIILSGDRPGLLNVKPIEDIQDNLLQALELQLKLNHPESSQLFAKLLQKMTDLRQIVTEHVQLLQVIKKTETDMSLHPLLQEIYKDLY
# test_method_notes: GAL4-hPPARγ-UAS-luciferase reporter assay in transiently transfected HEK293 cells
# Format: cell-based
# details: dose-response, HEK293 cells
metric_name: PPARγ agonist profile compared to rosiglitazone control

Worked examples, 7 compounds total:
>>> result("CCOC(=O)CCCCCCCc1cccc(OCC(=O)OCC)c1")
"full agonist profile"
>>> result("CC(C)(Oc1cccc(CCCCCCCCO)c1)C(=O)O")
"full agonist profile"
>>> result("CCCCCCCCCCCCCCCc1cccc(OCC(=O)O)c1")
"full agonist profile"
>>> result("CCCCCCCCCCCCCCCc1cccc(OC(C)=O)c1C(=O)O")
"partial PPARγ agonists"
>>> result("CCCCCCCCCCCCCCCc1cccc(O)c1C(=O)O")
"full agonist profile"
>>> result("CCCCCCCCCCCCCCCc1cccc(OCC(=O)OCC)c1")
"partial PPARγ agonists"
>>> result("CCOC(=O)C(C)(C)Oc1cccc(CCCCCCCC(=O)O)c1")
"full agonist profile"

Qu. Any idea what PPARγ agonist profile compared to rosiglitazone control came out for `CCCCCCCCCCCCCCCc1cccc(OC(C)(C)C(=O)OCC)c1` on UniProt P37231?
Ans. partial PPARγ agonists

---

# study_system: UniProt:P37231
# test_method_notes: GAL4-hPPARγ-UAS-luciferase reporter assay in transiently transfected HEK293 cells
# details: dose-response, HEK293 cells; read-out: EC50 for PPARγ
metric_name: EC50 (µM)
Give just the numeric value; µM need not be written.

Qu. What reported EC50 corresponds to `CCCCCCCCCCCCCCCc1cccc(O)c1C(=O)O` on UniProt:P37231?
Ans. 12

Qu. And what about the compound `CCOC(=O)C(C)(C)Oc1cccc(CCCCCCCC(=O)O)c1` ?
Ans. 14

Qu. Now the compound `CCCCCCCCCCCCCCCc1cccc(OCC(=O)O)c1`
Ans. 3.6

Qu. # iterate: `CCCCCCCCCCCCCCCc1cccc(OC(C)=O)c1C(=O)O`
Ans. 12

Qu. Do the same for `CC(C)(Oc1cccc(CCCCCCCCO)c1)C(=O)O` please
Ans. 14

Qu. Follow-up item: `CCOC(=O)CCCCCCCc1cccc(OCC(=O)OCC)c1`
Ans. 21

Qu. Another compound to look at: `CCCCCCCCCCCCCCCc1cccc(OCC(=O)OCC)c1`
Ans. 42

---

# study_system: UniProt Q07869
# Sequence (Q07869 200-468 limits assumed): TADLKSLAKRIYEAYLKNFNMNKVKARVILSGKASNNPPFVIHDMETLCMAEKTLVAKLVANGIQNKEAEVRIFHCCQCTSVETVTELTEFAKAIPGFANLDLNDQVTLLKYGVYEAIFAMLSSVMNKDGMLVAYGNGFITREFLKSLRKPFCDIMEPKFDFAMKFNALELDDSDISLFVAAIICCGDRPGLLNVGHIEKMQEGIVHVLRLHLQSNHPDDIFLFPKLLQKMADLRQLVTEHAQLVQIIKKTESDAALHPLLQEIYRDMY
# test_method_notes: GAL4-hPPARα-UAS-luciferase reporter assay in transiently transfected HEK293 cells
# details: dose-response, HEK293 cells; read-out: EC50 for PPARα
# strict inequality: EC50 < 4 µM yields met, everything else yields not met

Qu. Bench note: check whether CCCCCCCCCCCCCCCc1cccc(OC(C)(C)C(=O)O)c1 [LDT409] shows EC50 below 4 µM
Ans. met

Qu. What about this compound? CCOC(=O)C(C)(C)Oc1cccc(CCCCCCCC(=O)O)c1 [LDT478]
Ans. not met

Qu. One more compound: CCOC(=O)COc1cccc(CCCCCCCC(=O)O)c1 [LDT298]
Ans. met

Qu. // query: CC(C)(Oc1cccc(CCCCCCCCO)c1)C(=O)O [LDT477]
Ans. not met

Qu. Also CCCCCCCCCCCCCCCc1cccc(OCC(=O)O)c1 [LDT16] ?
Ans. met

Qu. Would you kindly repeat that for CCCCCCCCCCCCCCCc1cccc(O)c1C(=O)O [LDT11] ?
Ans. not met

Qu. Next record, please: CCCCCCCCCCCCCCCc1cccc(OC)c1C(=O)O [LDT30]
Ans. not met

Qu. Next up: CCCCCCCCCCCCCCCc1cccc(OC(C)=O)c1C(=O)O [LDT13]
Ans. not met

Qu. Please do the same for CCCCCCCCCCCCCCCc1cccc(OCC(=O)OCC)c1 [LDT15] as well.
Ans. met
